target-system: Nucleotide-binding oligomerization domain-containing protein 1 (Homo sapiens)
Sequence (Q9Y239 whole entry, the tested form may be a part): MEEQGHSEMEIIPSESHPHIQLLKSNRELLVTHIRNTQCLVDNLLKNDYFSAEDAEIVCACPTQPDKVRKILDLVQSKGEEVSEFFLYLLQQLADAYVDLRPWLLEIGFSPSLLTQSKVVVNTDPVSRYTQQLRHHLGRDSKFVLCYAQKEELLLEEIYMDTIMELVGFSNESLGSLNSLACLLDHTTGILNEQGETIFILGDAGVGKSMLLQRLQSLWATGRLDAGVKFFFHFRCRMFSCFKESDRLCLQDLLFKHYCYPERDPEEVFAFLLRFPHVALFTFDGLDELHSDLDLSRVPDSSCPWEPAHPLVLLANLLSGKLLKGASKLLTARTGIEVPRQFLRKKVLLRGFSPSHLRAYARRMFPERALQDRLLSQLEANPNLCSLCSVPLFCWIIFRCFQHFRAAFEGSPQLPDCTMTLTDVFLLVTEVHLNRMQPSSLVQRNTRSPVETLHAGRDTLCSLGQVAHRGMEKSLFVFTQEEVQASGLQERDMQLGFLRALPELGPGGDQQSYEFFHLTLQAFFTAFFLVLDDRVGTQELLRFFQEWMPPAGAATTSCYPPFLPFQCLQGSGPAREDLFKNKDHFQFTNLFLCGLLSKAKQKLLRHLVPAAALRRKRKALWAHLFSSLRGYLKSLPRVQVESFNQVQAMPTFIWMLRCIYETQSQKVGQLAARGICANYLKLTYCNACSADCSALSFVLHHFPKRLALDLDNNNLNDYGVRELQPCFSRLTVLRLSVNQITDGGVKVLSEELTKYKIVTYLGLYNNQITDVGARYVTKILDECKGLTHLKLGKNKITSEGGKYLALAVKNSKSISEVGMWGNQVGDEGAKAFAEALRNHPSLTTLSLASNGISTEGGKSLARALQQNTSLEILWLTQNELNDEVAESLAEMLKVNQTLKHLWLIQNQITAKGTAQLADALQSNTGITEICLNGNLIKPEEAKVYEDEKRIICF
run-description: NOD1 signaling inhibitors, SAR follow-up, revised (AID 2333)
Format: functional
Active and inactive are the calls of the source.
Lab note: assign the record to one of active, inactive

Called result for `COc1ccc(NC(=O)c2ccc(CN3CCc4ccccc43)cc2)cc1` inactive

Called result for Cn1nccc1C(=O)NC1CCCc2c1cnn2-c1ccc(F)cc1F (centres undefined) active

Called result for `O=C(Nc1nc2ccccc2n1Cc1ccc(Cl)cc1)c1cccs1` inactive

Called result for `C=CCN(c1ccccc1OC)S(=O)(=O)c1ccc(Cl)c(C(=O)Nc2ccc(N3CCOCC3)cc2)c1` active

---

target-system: Heat shock factor protein 1 (Mus musculus, UniProt P38532)
Sequence (P38532 whole entry): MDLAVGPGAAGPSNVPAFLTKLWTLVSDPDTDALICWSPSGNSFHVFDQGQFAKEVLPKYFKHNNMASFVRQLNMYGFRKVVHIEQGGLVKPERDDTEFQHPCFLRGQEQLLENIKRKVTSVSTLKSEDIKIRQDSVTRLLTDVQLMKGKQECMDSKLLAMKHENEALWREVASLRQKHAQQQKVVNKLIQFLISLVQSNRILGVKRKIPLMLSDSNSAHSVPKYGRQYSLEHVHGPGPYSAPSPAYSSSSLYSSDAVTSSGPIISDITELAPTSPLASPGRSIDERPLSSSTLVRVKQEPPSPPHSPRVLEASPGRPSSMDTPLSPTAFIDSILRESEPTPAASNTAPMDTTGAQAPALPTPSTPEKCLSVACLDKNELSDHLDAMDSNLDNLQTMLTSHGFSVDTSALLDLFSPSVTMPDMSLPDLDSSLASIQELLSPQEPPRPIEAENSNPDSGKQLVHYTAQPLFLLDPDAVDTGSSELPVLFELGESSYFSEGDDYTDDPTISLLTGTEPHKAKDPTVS
run-description: HSF1 potentiators in luciferase reporter cells, confirmation, cell-based, NIH3T3, luminescence, dose retest (AID 435004);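 also: stress induced by proteasome inhibitor MG132 added 30 min after compound; luciferase reporter driven by HSF1 response element in NIH3T3 cells; actives raise luminescence as potentiators of the MG132 stress response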
Format: functional
The source made the active and inactive calls.
Lab note: assign the record to one of y = active, n = inactive

Called result for CCOC(=O)C1CCCN(C(=O)c2sc3nc(C)nc(N(CC)CC)c3c2C)C1 (stereo not given) n

Called result for `Cc1cccc(NC(=S)N=Nc2c(O)[nH]c3ccccc23)c1` y

Called result for `CCCCOc1ccc(C(=O)N/N=C/c2c[nH]nc2-c2ccc(OC)c(OC)c2)cc1` n

Called result for COc1ccc(C2c3ccc(O)cc3Oc3ncn(Cc4ccco4)c(=N)c32)cc1 (stereo not given) n

Called result for CC(C)(C)C(=O)NCC12C=CC(O1)C1C(=O)N(c3ccccc3)C(=O)C12 (stereo not given) n

---

Below are compounds with their AC50 as measured on Cytochrome P450 1A2 (Homo sapiens).
Sequence (P05177 whole entry): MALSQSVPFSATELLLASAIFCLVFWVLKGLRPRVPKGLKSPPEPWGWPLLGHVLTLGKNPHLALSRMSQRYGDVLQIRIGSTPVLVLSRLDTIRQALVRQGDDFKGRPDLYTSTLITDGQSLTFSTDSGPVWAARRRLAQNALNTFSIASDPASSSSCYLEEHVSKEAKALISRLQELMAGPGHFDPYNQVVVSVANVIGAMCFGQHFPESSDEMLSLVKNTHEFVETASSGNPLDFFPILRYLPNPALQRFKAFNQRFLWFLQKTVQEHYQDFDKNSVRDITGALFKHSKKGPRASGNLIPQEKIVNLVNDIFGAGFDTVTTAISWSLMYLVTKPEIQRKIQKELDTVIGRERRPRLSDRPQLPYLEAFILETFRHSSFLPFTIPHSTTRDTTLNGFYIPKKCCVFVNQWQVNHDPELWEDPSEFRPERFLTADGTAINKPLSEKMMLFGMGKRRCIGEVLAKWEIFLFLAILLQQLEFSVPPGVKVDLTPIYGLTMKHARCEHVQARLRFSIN

Give the measured AC50 for CCC[C@@H]1C[C@@]1(CCC)C(NC(=O)c1ccco1)c1ccc(Cl)cc1 (some centres undefined) 25.1 µM (inconclusive)

Give the measured AC50 for `Cn1cc(-c2nc3cnc(N4CCNCC4)nc3n(CCc3ccccc3)c2=O)c2ccccc21` 15.8 µM (inconclusive)

Give the measured AC50 for `CS(=O)(=O)N1CCC2(CC1)CN(c1ccccc1)C2` 20 µM (inconclusive)

Give the measured AC50 for `c1ccc(CCNc2ccccn2)nc1` 5.01 µM (inconclusive)

---

Could you please report measured EC50 for the items listed next?
run-description: Luminescence Cell-Based Dose Response HTS to Identify Activators of Luciferase Translation or Activity in H4 […] Cells. [Related pubchem assays: 1829 (Project Summary), 1814 (Primary HTS)]
Type: functional
Calls of active or inactive are those of the source.

Give the measured EC50 for `COc1ccc(CNC(=O)Cn2cccc2C(=O)c2ccccc2C)cc1` 10.2 µM (active)

Give the measured EC50 for COc1cccc(-c2nc3n(n2)C(c2ccc4c(c2)OCO4)C(C(N)=O)=C(C)N3)c1 (centres undefined) 31.6 µM (active)

Give the measured EC50 for O=C1CC(c2ccccc2)Sc2nc3ccccc3n21 (centres undefined) 15.4 µM (active)

Give the measured EC50 for `Cc1nc2c(-c3ccccc3)cnn2c(N2CCOCC2)c1C` < 0.1 µM (active)

---

target-system: Fatty acid synthase (Homo sapiens)
Sequence (P49327 whole entry, the tested form may be a part): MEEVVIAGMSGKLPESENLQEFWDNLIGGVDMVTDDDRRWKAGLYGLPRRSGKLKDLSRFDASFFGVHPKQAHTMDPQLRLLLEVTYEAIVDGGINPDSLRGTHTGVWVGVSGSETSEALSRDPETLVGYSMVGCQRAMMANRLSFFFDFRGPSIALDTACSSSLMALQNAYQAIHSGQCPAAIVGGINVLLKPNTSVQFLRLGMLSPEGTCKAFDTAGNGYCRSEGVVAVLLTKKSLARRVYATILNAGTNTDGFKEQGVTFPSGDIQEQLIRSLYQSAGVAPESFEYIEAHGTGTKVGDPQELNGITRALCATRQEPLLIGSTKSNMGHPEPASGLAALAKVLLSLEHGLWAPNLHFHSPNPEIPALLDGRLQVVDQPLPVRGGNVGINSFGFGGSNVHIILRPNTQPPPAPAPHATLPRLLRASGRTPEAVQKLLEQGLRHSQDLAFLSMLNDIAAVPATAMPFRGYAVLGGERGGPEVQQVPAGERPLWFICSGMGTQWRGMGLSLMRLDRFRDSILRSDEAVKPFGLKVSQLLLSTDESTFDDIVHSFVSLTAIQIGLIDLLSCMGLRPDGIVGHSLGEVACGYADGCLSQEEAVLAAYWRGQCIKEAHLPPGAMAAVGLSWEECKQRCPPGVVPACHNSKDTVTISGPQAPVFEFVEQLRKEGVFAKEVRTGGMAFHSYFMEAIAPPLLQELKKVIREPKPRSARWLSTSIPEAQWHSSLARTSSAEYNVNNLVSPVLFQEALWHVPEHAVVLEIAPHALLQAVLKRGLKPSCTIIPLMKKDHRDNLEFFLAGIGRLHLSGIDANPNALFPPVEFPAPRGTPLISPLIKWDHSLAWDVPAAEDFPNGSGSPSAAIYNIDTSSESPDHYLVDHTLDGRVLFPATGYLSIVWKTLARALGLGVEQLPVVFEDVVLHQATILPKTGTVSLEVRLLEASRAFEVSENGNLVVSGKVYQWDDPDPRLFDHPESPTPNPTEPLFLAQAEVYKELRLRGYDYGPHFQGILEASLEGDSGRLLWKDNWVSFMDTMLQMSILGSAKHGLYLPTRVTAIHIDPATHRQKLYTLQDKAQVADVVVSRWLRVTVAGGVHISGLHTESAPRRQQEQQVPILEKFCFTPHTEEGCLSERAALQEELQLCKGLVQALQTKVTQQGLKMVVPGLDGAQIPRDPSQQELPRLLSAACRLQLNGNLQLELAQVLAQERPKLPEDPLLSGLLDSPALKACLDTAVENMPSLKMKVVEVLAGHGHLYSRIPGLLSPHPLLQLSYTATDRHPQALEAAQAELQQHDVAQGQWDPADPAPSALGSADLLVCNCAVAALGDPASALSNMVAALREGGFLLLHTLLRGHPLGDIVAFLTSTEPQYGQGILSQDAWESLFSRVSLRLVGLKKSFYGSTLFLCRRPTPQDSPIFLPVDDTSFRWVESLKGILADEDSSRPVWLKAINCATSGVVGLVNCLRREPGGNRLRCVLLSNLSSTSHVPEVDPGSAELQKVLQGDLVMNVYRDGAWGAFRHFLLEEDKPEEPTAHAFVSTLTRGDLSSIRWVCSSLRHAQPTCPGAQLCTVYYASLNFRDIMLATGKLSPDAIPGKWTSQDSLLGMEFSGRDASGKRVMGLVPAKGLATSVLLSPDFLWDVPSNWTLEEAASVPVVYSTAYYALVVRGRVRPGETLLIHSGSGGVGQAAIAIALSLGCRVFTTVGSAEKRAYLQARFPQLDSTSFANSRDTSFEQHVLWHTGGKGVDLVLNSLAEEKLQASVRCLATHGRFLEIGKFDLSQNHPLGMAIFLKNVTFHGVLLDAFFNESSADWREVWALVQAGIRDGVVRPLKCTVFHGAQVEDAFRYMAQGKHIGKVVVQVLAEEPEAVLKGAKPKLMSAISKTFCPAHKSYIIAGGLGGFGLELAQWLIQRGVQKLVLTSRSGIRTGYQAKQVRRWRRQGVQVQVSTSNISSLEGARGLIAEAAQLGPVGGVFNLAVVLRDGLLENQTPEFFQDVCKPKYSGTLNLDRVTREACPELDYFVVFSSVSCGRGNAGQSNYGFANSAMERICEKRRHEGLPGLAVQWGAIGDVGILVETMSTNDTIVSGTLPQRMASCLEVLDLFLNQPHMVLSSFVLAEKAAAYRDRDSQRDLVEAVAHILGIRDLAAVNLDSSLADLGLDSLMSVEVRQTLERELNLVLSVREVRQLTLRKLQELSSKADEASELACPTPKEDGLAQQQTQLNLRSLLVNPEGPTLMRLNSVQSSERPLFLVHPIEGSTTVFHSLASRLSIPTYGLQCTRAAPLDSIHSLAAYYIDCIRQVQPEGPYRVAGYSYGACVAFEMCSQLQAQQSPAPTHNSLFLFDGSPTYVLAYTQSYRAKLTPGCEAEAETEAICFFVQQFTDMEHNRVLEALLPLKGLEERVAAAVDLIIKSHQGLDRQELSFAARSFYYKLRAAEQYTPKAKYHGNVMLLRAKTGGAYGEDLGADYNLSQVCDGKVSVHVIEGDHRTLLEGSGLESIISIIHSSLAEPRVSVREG
run-description: FAS thioesterase domain inhibitors, dose response, biochemical, endpoint fluorescence intensity, uHTS hits (AID 624327);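 also: fluorescence from hydrolysis of an O-methyl fluorescein acyl ester substrate by the enzyme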
Assay type: functional
Calls of active or inactive are those of the source.
Lab note: assign the record to one of true (1) (active), false (0) (inactive)

Called result for `CN(C(=O)COC(=O)c1cc([N+](=O)[O-])ccc1Cl)c1ccccc1` true (1)

Called result for O=C1C2ON(c3ccccc3)C(c3cccnc3)C2C(=O)N1c1ccc(Cl)c(Cl)c1 (stereo unspecified) true (1)

Called result for C=C1CC(COc2ccc3c(C)c(Cl)c(=O)oc3c2)(c2ccccc2)OC1=O (stereo unspecified) true (1)

Called result for `CC(C)(C)OC(=O)NCCc1nnc(S(=O)(=O)Cc2ccc(Cl)cc2Cl)o1` true (1)

Called result for `COC(=O)c1cc(C(=O)OCC(=O)NC2CCCCCCC2)cc([N+](=O)[O-])c1` true (1)

Called result for `O=C(CN1C(=O)c2ccc([N+](=O)[O-])cc2C1=O)NCCC1=CCCCC1` false (0)

Called result for `O=C(CCNC(=O)c1ccc([N+](=O)[O-])cc1)NCCC1=CCCCC1` true (1)

Called result for `O=C(/C=C/c1cc([N+](=O)[O-])ccc1OC(F)F)NCc1ccc(F)cc1` true (1)

Called result for `COC(=O)N1C(=O)[C@](c2ccccc2)(C2CCCC2)N1C(=O)OC` true (1)

Called result for `O=C(N/N=C/c1cc([N+](=O)[O-])cc([N+](=O)[O-])c1O)/C(=C\c1cccs1)NC(=O)c1ccccc1` true (1)

Called result for `O=C(NCc1ccc2c(c1)OCO2)c1ccc2c(c1)N(Cc1c(F)cccc1Cl)C(=O)CS2` true (1)
